Item-by-item account of AC50
# systemUnderTest: Alpha-1A adrenergic receptor (Homo sapiens, UniProt P35348); also: assay procedure not described here
# Sequence (P35348 whole entry): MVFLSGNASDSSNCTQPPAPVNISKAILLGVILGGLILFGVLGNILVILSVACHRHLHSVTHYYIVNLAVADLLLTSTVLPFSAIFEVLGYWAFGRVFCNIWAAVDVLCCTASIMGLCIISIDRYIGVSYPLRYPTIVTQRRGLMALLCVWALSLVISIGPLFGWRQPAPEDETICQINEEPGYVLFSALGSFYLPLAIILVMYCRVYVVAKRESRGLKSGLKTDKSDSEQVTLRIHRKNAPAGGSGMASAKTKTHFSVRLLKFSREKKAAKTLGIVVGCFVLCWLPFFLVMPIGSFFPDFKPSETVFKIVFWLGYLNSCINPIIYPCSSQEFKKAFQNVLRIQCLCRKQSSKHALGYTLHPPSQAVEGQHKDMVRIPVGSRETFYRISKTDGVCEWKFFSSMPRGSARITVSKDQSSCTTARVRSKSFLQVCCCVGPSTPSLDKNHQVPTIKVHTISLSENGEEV
# Format: functional, cell-based

Example cases with answers are listed next.
molecule	AC50
CN(C)CCC(c1ccc(Cl)cc1)c1ccccn1 (stereo not drawn) [CHLORPHENIRAMINE]	> 30 µM
CC[C@H]1[C@@H](O)[C@@H]2[C@H](CC[C@]3(C)[C@@H]([C@H](C)CCC(=O)O)CC[C@@H]23)[C@@]2(C)CC[C@@H](O)C[C@@H]12 [OBETICHOLIC ACID]	6.3 µM
COc1ccc2c3c1O[C@H]1[C@@H](O)CC[C@H]4[C@@H](C2)N(C)CC[C@@]341 [DIHYDROCODEINE]	> 30 µM
Cc1c(OCC(F)(F)F)ccnc1C[S+]([O-])c1nc2ccccc2[nH]1 (stereo not drawn) [LANSOPRAZOLE]	> 30 µM
CC[C@H]1CN2CCc3cc(OC)c(OC)cc3[C@@H]2C[C@@H]1C[C@H]1NCCc2cc(OC)c(OC)cc21 [EMETINE]	> 30 µM
CN1[C@@H]2CC[C@H]1C[C@@H](OC(c1ccccc1)c1ccccc1)C2 [BENZTROPINE]	0.96 µM

## Input Given the entry CC(C(=O)O)c1ccc(N2Cc3ccccc3C2=O)cc1 (stereo not drawn) [INDOPROFEN] , report its measured AC50.
## Output > 30 µM

## Input // returns reported AC50 for input CNC(=O)c1ccccc1Sc1ccc2c(/C=C/c3ccccn3)n[nH]c2c1 [AXITINIB]
## Output > 30 µM

Hey, just so you know, these numbers are from ChEMBL document CHEMBL5291721.
